# tgt: Gamma-secretase
# assay-remarks: Inhibition of gamma-secretase (unknown origin) expressed in HEK293 cells co-expressing […] mutant assessed as reduction of amyloid beta-40 production
# Assay type: cell-based, Homo sapiens
reported-property: IC50 (µM)
Quick note: give the figure in µM, leave out the unit.

A selection of reference data follows.
O=C1C=CC(F)(F)C2=C1[C@]1(S(=O)(=O)c3ccc(C(F)(F)F)cc3)CCC[C@@H](CNS(=O)(=O)C(F)(F)F)[C@@H]1CO2 0.33
CS(=O)(=O)CC[C@@H]1OCC[C@@]2(S(=O)(=O)c3ccc(C#N)cc3)C3=C(OC[C@@H]12)C(F)(F)C=CC3=O 1.6
CS(=O)(=O)CC[C@@H]1OCC[C@@]2(S(=O)(=O)c3ccc(C(F)(F)F)cc3)C3=C(OC[C@@H]12)C(F)(F)C=CC3=O 0.056

Attention now shifts to the item below.
Entry CS(=O)(=O)CC[C@@H]1CCC[C@@]2(S(=O)(=O)c3ccc(C(F)(F)F)cc3)c3c(F)ccc(F)c3OC[C@@H]12 : reported IC50 = ?
0.063

====

# tgt: Gamma-secretase
# assay-remarks: Inhibition of gamma-secretase (unknown origin) expressed in HEK293 cells co-expressing […] mutant assessed as reduction of amyloid beta-42 production
# Type: cell-based, Homo sapiens
reported-property: log10(IC50) (log10 of the value in µM)
Log scale reminder: IC50 in µM, then log10 taken.

A selection of reference data follows.
CC[C@@H]1C[C@@H]2[C@@H](CC[C@@]3(S(=O)(=O)c4ccc(C#N)cc4)C4=C(OC[C@@H]23)C(F)(F)C=CC4=O)NS1(=O)=O -1.51
O=C1C=CC(F)(F)C2=C1[C@]1(S(=O)(=O)c3ccc(C(F)(F)F)cc3)CCC[C@@H](CNS(=O)(=O)C(F)(F)F)[C@@H]1CO2 -0.70
O=C1C=CC(F)(F)C2=C1[C@]1(S(=O)(=O)c3ccc(C(F)(F)F)cc3)CC[C@@H](NS(=O)(=O)C3CC3)C[C@@H]1CO2 -0.96
CS(=O)(=O)CC[C@@H]1OCC[C@@]2(S(=O)(=O)c3ccc(Cl)cc3)C3=C(OC[C@@H]12)C(F)(F)C=CC3=O -1.96
CS(=O)(=O)CC[C@@H]1OCC[C@@]2(S(=O)(=O)c3ccc(C#N)cc3)c3c(F)ccc(F)c3OC[C@@H]12 -2.05
CS(=O)(=O)CC[C@@H]1OCC[C@@]2(S(=O)(=O)c3ccc(C(F)(F)F)cc3)C3=C(OC[C@@H]12)C(F)(F)C=CC3=O -1.57
CS(=O)(=O)CC[C@@H]1CCC[C@@]2(S(=O)(=O)c3ccc(C(F)(F)F)cc3)C3=C(OC[C@@H]12)C(F)(F)C=CC3=O -1.31
CC[C@@H]1C[C@@H]2[C@@H](CC[C@@]3(S(=O)(=O)c4ccc(C(F)(F)F)cc4)C4=C(OC[C@@H]23)C(F)(F)C=CC4=O)NS1(=O)=O -1.60

Attention now shifts to the item below.
Entry CS(=O)(=O)CC[C@@H]1OCC[C@@]2(S(=O)(=O)c3ccc(C(F)(F)F)cc3)c3c(F)ccc(F)c3OC[C@@H]12 : reported log10(IC50) = ?
-2.40

====

# tgt: Gamma-secretase
# assay-remarks: Inhibition of gamma-secretase (unknown origin) expressed in HEK293 cell membrane co-expressing […] mutant assessed as reduction of amyloid beta-40 production
# Assay type: cell-based, Homo sapiens
reported-property: IC50 (nM)
Quick note: give the figure in nM, leave out the unit.

CS(=O)(=O)CC[C@@H]1OCC[C@@]2(S(=O)(=O)c3ccc(C(F)(F)F)cc3)c3c(F)ccc(F)c3OC[C@@H]12 15
CC[C@@H]1C[C@@H]2[C@@H](CC[C@@]3(S(=O)(=O)c4ccc(C#N)cc4)c4c(F)ccc(F)c4OC[C@@H]23)NS1(=O)=O 4.7

Entry CC[C@@H]1C[C@@H]2[C@@H](CC[C@@]3(S(=O)(=O)c4ccc(C(F)(F)F)cc4)C4=C(OC[C@@H]23)C(F)(F)C=CC4=O)NS1(=O)=O : reported IC50 = ?
3.9

Entry CC[C@@H]1C[C@@H]2[C@@H](CC[C@@]3(S(=O)(=O)c4ccc(C(F)(F)F)cc4)c4c(F)ccc(F)c4OC[C@@H]23)NS1(=O)=O : reported IC50 = ?
1.9

Entry CS(=O)(=O)CC[C@@H]1OCC[C@@]2(S(=O)(=O)c3ccc(C(F)(F)F)cc3)C3=C(OC[C@@H]12)C(F)(F)C=CC3=O : reported IC50 = ?
1.8

Entry O=S(=O)(NC[C@@H]1CCC[C@@]2(S(=O)(=O)c3ccc(C(F)(F)F)cc3)c3c(F)ccc(F)c3OC[C@@H]12)C(F)(F)F : reported IC50 = ?
54

Entry CS(=O)(=O)CC[C@@H]1CCC[C@@]2(S(=O)(=O)c3ccc(C(F)(F)F)cc3)c3c(F)ccc(F)c3OC[C@@H]12 : reported IC50 = ?
43
